Molecular target: GPR139 (Homo sapiens)
Assay: GPR139 Agonist titration / agonist counterscreen assay (calcium detection, HEK-GPR139 cells)
Type: cell-based
Design: expressed in transfected cells; host or cells: HEK Aequorin cells, Maxcyte transient transfection
Conditions: GPR139 Agonist Activity; activity relative to known control
Protocol: GPR activity was assessed using a calcium detection assay. […] Negative control samples were treated with DMSO. […] Intracellular calcium was measured using Calcium 5.
Property label: Averaged Max % Response (±St. Dev.)
Kindly format the answer as number then unit.

Molecule | Averaged Max % Response (±St. Dev.)
Cc1cc(C)c2c(cnn2CC(=O)N2CCc3ccccc3C2)c1 [SR-01000154995] | 88.51 ± 8.87%
O=C(NCCCn1ccnc1)c1cc2nc3c(c(C(F)(F)F)n2n1)CCc1ccccc1-3 [SR-01000313440] | 84.05 ± 13.31%
Cc1cccc(-n2cnc3cc(C(=O)NCc4ccc5c(c4)OCO5)ccc32)c1 [SR-01000579592] | 96.78 ± 10.47%
O=C(CCc1nc2cccnc2n1Cc1cccs1)NCc1ccc2c(c1)OCO2 [SR-01000151666] | 107.14 ± 25.50%
CC(NC(=O)Cn1ncc2c(Cl)cccc21)c1ccc2c(c1)OCCO2 (stereo not shown) [SR-01000155068] | 127.51 ± 13.72%

Need Averaged Max % Response (±St. Dev.), item Cc1ccc(C(=O)NNC(=O)CSc2nnc(Cn3cnc4ccccc43)o2)cc1 [SR-01000337370]
96.26 ± 15.22%

Need Averaged Max % Response (±St. Dev.), item CCC1(c2ccc(Cl)cc2)NC(=O)N(CC(=O)N2CC3(C)CC2CC(C)(C)C3)C1=O (stereo not shown) [SR-01000045673]
101.61 ± 5.25%

Need Averaged Max % Response (±St. Dev.), item CC(C)CCNC(=O)CN1CCN(Cc2ccc(F)cc2Cl)C1=O [SR-01000161248]
106.33 ± 15.91%

Need Averaged Max % Response (±St. Dev.), item COc1ccc(NC(=O)NC(O)(O)c2cccc(C(C)=O)c2)cc1 [SR-01000428888]
105.90 ± 33.97%

Need Averaged Max % Response (±St. Dev.), item COc1ccc2c(c1)C[C@H](C(=O)Nc1ccc(-c3cn[nH]c3)cc1OCCN1CCCC1)NC2.O=C(O)C(F)(F)F.O=C(O)C(F)(F)F.O=C(O)C(F)(F)F [SR-00000007044]
81.04 ± 10.01%

---

System: parental HEK cells
Assay: HEK parental Agonist Counterscreen Assay (non-transfected cells)
Format: cell-based
Details: HEK Agonist Activity; activity relative to known control
Text: The high control for the agonist counterscreen was Forskolin not acetylcholine.
Property label: Averaged Max % Response (±St. Dev.)
Kindly format the answer as number then unit.

Below: 3 molecules and their reported Averaged Max % Response (±St. Dev.).
Molecule | Averaged Max % Response (±St. Dev.)
CCOc1nn(CC)cc1-c1nnc(SCc2ccc(C(=O)OC)cc2)n1C | −13.54 ± 17.63%
COc1ccc(C2(C)NC(=O)N(CC(=O)Nc3cc(C)ccc3C)C2=O)cc1 (stereo not shown) | 92.04 ± 16.23%
C=C(CCc1cccc(CC)c1)C(C)C1CCC(Cc2ccccc2C)C1=C (stereo not shown) | 25.01 ± 8.12%

Turning to the following molecule.
Need Averaged Max % Response (±St. Dev.), item COc1ccccc1C(=O)NNC(=O)C(C)Oc1ccc(Cl)cc1Cl (stereo not shown)
1.37 ± 3.30%

---

Target: GPR139 (Homo sapiens)
Assay: GPR139 Agonist titration / agonist counterscreen assay (calcium detection, HEK-GPR139 cells)
Assay type: cell-based
Set-up: expressed in transfected cells; host or cells: HEK Aequorin cells, Maxcyte transient transfection
Conditions: GPR139 Agonist Activity; fitted dose-response curve
Property label: Hill Slope

Below: 3 molecules and their reported Hill Slope.
Molecule | Hill Slope
O=C(CN1CCN(Cc2ccccc2Cl)C1=O)NCc1ccccc1Cl [SR-01000125458] | 0.73
CC1(c2ccc3c(c2)OCO3)NC(=O)N(CC(=O)Nc2ccccc2[N+](=O)[O-])C1=O (stereo not shown) [SR-01000074154] | 0.54
Nc1c(Cl)c(Cl)nc(C(=O)OCC(=O)NCc2ccccc2)c1Cl [SR-01000073564] | 0.59

Need Hill Slope, item Cc1ccccc1NC(=O)CSC1=C(C#N)C(c2ccccc2C(F)(F)F)C2=C(CCCC2=O)N1 (stereo not shown) [SR-01000484454]
0.52

---

System: parental HEK cells
Experiment: HEK parental Agonist Counterscreen Assay (non-transfected cells)
Type: cell-based
Details: HEK Agonist Activity; activity relative to known control
Recorded Averaged Max % Response (±St. Dev.) values for a group of compounds are listed next.
Give the value, in units of %, as a plain number.

Compound | Study system | Averaged Max % Response (±St. Dev.) [%]
CC1(c2ccc3ccccc3c2)NC(=O)C(CC(=O)NCc2ccco2)C1=O (stereo not shown) | parental HEK cells | 11.91
O=C(CSCc1ccc(Cl)cc1Cl)NNC(=O)c1ccccc1 | parental HEK cells | −4.01

Turning to the following compound.
Value wanted: Averaged Max % Response (±St. Dev.) (parental HEK cells) of entry O=C(NCC1Cc2cccc(-c3ccccn3)c2O1)c1ccc(-n2cccn2)cc1 (stereo not shown)
−9.57

---

Target: GPR139 (Homo sapiens)
Test: GPR139 Agonist titration / agonist counterscreen assay (calcium detection, HEK-GPR139 cells)
Type: cell-based
Set-up: expressed in transfected cells; host or cells: HEK Aequorin cells, Maxcyte transient transfection
Conditions: GPR139 Agonist Activity; fitted dose-response curve
Recorded Hill Slope values for a group of molecules are listed next.
Answer with a bare number; do not write a unit.

Molecule | Study system | Val
O=C(NCCn1ccc2ccccc21)c1cccs1 | GPR139 (Homo sapiens) | 0.88
CCC1(c2ccc(Cl)cc2)NC(=O)N(CC(=O)N2CC3(C)CC2CC(C)(C)C3)C1=O (centres unmarked) | GPR139 (Homo sapiens) | 0.62
CC(=O)c1cccc(C(C)(C)CC(=O)CNC(=O)c2ccccc2)c1 | GPR139 (Homo sapiens) | 0.44
CC(NC(=O)Cn1ncc2ccccc21)c1ccc2c(c1)OCCO2 (centres unmarked) | GPR139 (Homo sapiens) | 0.63
COc1ccc(C(=O)NNC(=O)COc2ccc(Cl)cc2Cl)cc1OC | GPR139 (Homo sapiens) | 0.77
COc1ccc(CC(=O)NNC(=O)C(C)Oc2ccc(Cl)cc2Cl)cc1 (centres unmarked) | GPR139 (Homo sapiens) | 0.85

Need Hill Slope, item "CN1CC[C@H](Oc2cc(-c3cn[nH]c3)ccc2NC(=O)N(Cc2ccccc2)C2CC2)C1.O=C(O)C(F)(F)F.O=C(O)C(F)(F)F"
0.81

Need Hill Slope, item "Cc1cccc(NC(=O)NCCc2ccc3c(c2)CCCN3C)c1"
0.45

Need Hill Slope, item CC1CCC(NC(=O)CCC(=O)N2CCSc3ccccc32)CC1 (centres unmarked)
1.18

Need Hill Slope, item CC(NC(=O)COC(=O)c1ccccc1C(F)(F)F)c1ccccc1 (centres unmarked)
0.54

Need Hill Slope, item "COc1ccc(NC(=O)Cn2ncc3c2-c2ccccc2OC3)cc1Cl"
0.51

Need Hill Slope, item O=C(Nc1ccc(-c2cn[nH]c2)cc1OCCN1CCCC1)C1COc2ccc(F)cc2C1.O=C(O)C(F)(F)F.O=C(O)C(F)(F)F (centres unmarked)
0.77

Need Hill Slope, item "Cc1c(C(=O)NC(C)(C)CO)cnn1-c1ncc2c(n1)-c1ccccc1CC2"
0.92

Need Hill Slope, item "CCn1c(C)nc2cc(C(=O)NNC(=O)Cc3cccc4ccccc34)ccc21"
0.61

---

Molecular target: GPR139 (Homo sapiens)
Sequence (Q6DWJ6 1-353): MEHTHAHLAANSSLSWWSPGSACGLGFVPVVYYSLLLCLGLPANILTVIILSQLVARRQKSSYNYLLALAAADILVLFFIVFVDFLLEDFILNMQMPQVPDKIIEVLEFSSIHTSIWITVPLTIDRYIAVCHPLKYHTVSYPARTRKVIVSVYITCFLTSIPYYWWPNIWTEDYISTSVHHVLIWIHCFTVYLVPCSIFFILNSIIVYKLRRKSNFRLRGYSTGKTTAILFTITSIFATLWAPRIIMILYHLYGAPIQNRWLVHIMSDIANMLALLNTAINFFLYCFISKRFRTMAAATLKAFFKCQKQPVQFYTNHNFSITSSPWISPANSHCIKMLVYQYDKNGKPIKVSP
Experiment: GPR139 Agonist titration / agonist counterscreen assay (calcium detection, HEK-GPR139 cells)
Format: cell-based
Design: expressed in transfected cells; host or cells: HEK Aequorin cells, Maxcyte transient transfection
Details: GPR139 Agonist Activity; fitted dose-response curve
Recorded Hill Slope values for a group of molecules are listed next.
Answer with a bare number; do not write a unit.

Molecule | Hill Slope
COc1ccc(CCNC(=O)c2cncc(-c3csc4ccccc34)c2)cc1 | 1.05
CC(NC(=O)CN1C(=O)c2cccc([N+](=O)[O-])c2C1=O)c1ccc(Cl)cc1Cl (stereo not drawn) | 0.80

Need Hill Slope, item C=C(CC1C=CC2=C1c1ccccc1CC2)Nc1ccc(CC)cc1 (stereo not drawn)
0.87
